Test system: SK-MEL-2 melanoma
Experiment: NCI tumour cell line growth inhibition, 48 h
Experimental endpoint: TGI

[Cl-].[Gd+3].[O-]/N=C(\c1ccccc1)c1ccccn1.[O-]/N=C(\c1ccccc1)c1ccccn1.[O-]/N=C(\c1ccccc1)c1ccccn1 | 78.5 µM
CCOC(=O)c1cn(CC)c2ccc3c(c2c1=O)S(=O)(=O)C=C3 | > 100 µM

Enquiry: For Cc1nc(Cc2n[nH]c(C)n2)n[nH]1 , write its TGI.
Return: > 100 µM

Enquiry: Note TGI for the compound shown: COC(=O)c1sc(=NC(=S)N2CCCCC2)sc1C(=O)OC
Return: > 100 µM

Enquiry: Output measured TGI for this item: O=C(c1ccccc1)c1cc(Cl)ccc1NCn1nnc2ccccc21
Return: > 100 µM

Enquiry: For COc1cccc(C2C(C#N)=C(N)Oc3cc4c(cc32)OCO4)c1 (centres undefined) , write its TGI.
Return: 6.77 µM

Enquiry: Supply TGI value. Item: Cc1cc2occ(S(=O)(=O)NC(=O)Nc3ccc(Cl)cc3)c(=O)c2c(=O)o1
Return: > 100 µM

Enquiry: Answer with reported TGI of COc1cc2c(cc1OC)C(=O)/C(=C/c1ccc(N(C)C)cc1)CC2
Return: > 10 µM

Enquiry: Input NC(N)=N/N=C/c1c(-c2ccncc2)nc2sc(Cl)cn12 , output reported TGI.
Return: > 33.7 µM

Enquiry: Tell us which TGI value is on record for COc1ccc(-c2cc(-c3ccccc3)nc(NCCNc3ccnc4cc(Cl)ccc34)n2)cc1
Return: 3.43 µM

Enquiry: Fill in reported TGI for this entry: Cc1cc(C)nc(NS(=O)(=O)c2ccc(Nc3c4ccccc4nc4ccc(C(=O)Nc5ccc(S(=O)(=O)N=C(N)N)cc5)cc34)cc2)n1
Return: > 100 µM

Enquiry: Supply reported TGI belonging to this compound: COc1cccc(N=NN2CCCC2)c1
Return: > 100 µM

----------
System: OVCAR-5 ovarian
Assay: NCI tumour cell line growth inhibition, 48 h
Experimental endpoint: TGI

These recorded examples may help you get a feel for the data.
COc1ccc(/C(CC2OC(=O)c3ccccc32)=N\NC(N)=O)cc1 (centres undefined) | > 100 µM
C[n+]1c2ccccc2c(C(=O)Nc2ccc(S(=O)(=O)Nc3ncccn3)cc2)c2ccccc21 | > 100 µM
Cc1ccc(NCCN(C)C)c2c(=O)c3cc(O)ccc3sc12 | 29.6 µM
Cc1cc2c(cc1Cl)Sc1n[nH]c(=O)n1S2(=O)=O | > 100 µM
NC(Cc1ccccc1CP(=O)(O)O)C(=O)O (centres undefined) | > 100 µM
CCC1CN2CCc3c([nH]c4ccccc34)[C@@](C(=O)OC)(c3cc4c(cc3OC)N(C)C3C(O)(C(=O)OC)C(C(=O)OC)C5(CC)C=CCN6CCC43C65)C[C@@H](C2)[C@@H]1C(C)(C)C (some centres undefined) | > 10 µM
COc1cc(/C=C2\C(=O)N(C)c3ccccc32)cc(OC)c1OC | 70.2 µM
CN(C)c1ccc(O[Si](Oc2ccc(N(C)C)cc2)(Oc2ccc(N(C)C)cc2)Oc2ccc(N(C)C)cc2)cc1 | > 100 µM

Enquiry: Indicate its recorded TGI; the molecule in question is CC1=CCN(c2ccccn2)OC1c1ccccc1 (centres undefined)
Return: > 100 µM

----------
Tested on: A549 NSCLC
Test: NCI tumour cell line growth inhibition, 48 h
Experimental endpoint: TGI

O=c1c2cc(I)ccc2nc(-c2cccs2)n1O | 61.2 µM
CC[C@@]12CCC(=S)N(CCSc3ccccc3)[C@@H]1c1c(n(S(=O)(=O)c3ccc(OC)cc3)c3ccccc13)CC2 | > 100 µM
O=C(Oc1ccc2c(c1)CN(Cc1ccccc1)CO2)c1ccccc1 | 40.6 µM
CC(NNC(=O)c1ccncc1)c1ccc(Cl)cc1Cl (stereo not drawn) | > 100 µM
O=C1c2ccccc2C(=O)c2sc(Nc3cc(Cl)ccc3Cl)nc21 | 42.2 µM
C=CCOC(=O)N1c2ccc(O)cc2[C@@]23O[C@@]24[C@@H]1C#C/C=C\C#C[C@]3(O)C(=O)C[C@@H]4C | > 100 µM
COC(=O)[C@H](Cc1cn(C)cn1)NC(=O)[C@@H](NC(=O)Nc1cc(C(F)(F)F)cc(C(F)(F)F)c1)C(C)C | > 10 µM
CCOC(=O)c1cc2c3c(cc(OC)c2[nH]1)N(C(=O)OCC)CC3 | > 100 µM
COc1ccc2c(c1)CC[C@@H]1C2CC[C@]2(C)C(=C=CP(=O)(O)O)CCC12 (stereo partly drawn) | > 100 µM
NC(N)=NCCCC(NC(=O)c1c2ccccc2nc2ccccc12)C(=O)O (stereo not drawn) | > 100 µM

Enquiry: Given OCC#Cc1ccccc1C#Cc1ccc(C#Cc2ccccc2)cc1 , respond with its TGI.
Return: 33.3 µM

Enquiry: For C=CCN1C(=O)CC(=O)N(NC2=NNC3(C(=O)N2)c2ccccc2-c2ccccc23)C1=S , write its TGI.
Return: > 100 µM

Enquiry: Specify reported TGI for the molecule shown: NC(N)=N/N=C/c1c(-c2ccc(Cl)c([N+](=O)[O-])c2)nc2sc3ccccc3n12
Return: > 12.2 µM

Enquiry: Return TGI for the following molecule: CC(=O)C(C(C)=O)[C@H]1OC(C)(C)O[C@H]1[C@H]1COC(C)(C)O1
Return: > 100 µM

Enquiry: Identify measured TGI associated with C=C(Cn1c2ccccc2c(=O)c2ccccc21)c1ccc(C(=O)Nc2ccccc2N)cc1
Return: > 100 µM

Enquiry: Hello, please tell me recorded TGI for this one: O=C(c1ccccc1)C(Br)C(Br)c1ccccc1 (stereo not drawn)
Return: 39.2 µM

Enquiry: For the molecule N#Cc1c(N)nc(Sc2ccccc2N)c(C#N)c1-c1ccccc1 , report TGI.
Return: > 100 µM

Enquiry: Supply reported TGI belonging to this molecule: Cc1ccc(C2=C(Cl)C(=O)C(c3ccc(C)cc3)=C(Cl)C2=O)cc1
Return: > 100 µM

Enquiry: Consider the molecule CC1CCCN1CCCOC(=O)c1ccc(OC2C=CCCC2)cc1 (stereo not drawn) and give its recorded TGI.
Return: > 100 µM

Enquiry: Please give measured TGI of the following entry: CC(C)=CCc1c2c(c(O)c3c(=O)c4c(oc13)-c1ccc(O)cc1OC4C=C(C)C)C=CC(C)(C)O2 (stereo not drawn)
Return: 24.6 µM

Enquiry: Please list TGI recorded for the molecule O=C(C(=O)c1cc(Br)ccc1O)c1cc(Br)ccc1O
Return: 22.3 µM

Enquiry: Specify TGI for CCN1CCN(c2nc(NNC(=O)c3ccccc3)nc(N3CCN(C(c4ccccc4)c4ccccc4)CC3)n2)CC1 and stop.
Return: 20.2 µM

Enquiry: Annotate the molecule O=C(NCc1ccccc1Cl)c1c(O)c2ccccc2[nH]c1=O with its measured TGI.
Return: > 100 µM

Enquiry: Hello, please tell me recorded TGI for this one: C[C@]12CCC3=NCCN3C1=CC[C@@H]1[C@@H]2CC[C@@]2(C)[C@H]1CC[C@]2(C)O
Return: > 100 µM

Enquiry: Answer with the recorded TGI for the molecule listed here: CCCCCCCCCCCCC1N=C(N)NC2(CCCO2)C1C(=O)OC (stereo not drawn)
Return: 30.9 µM

Enquiry: Answer with reported TGI of COc1ccc(C(=O)O/N=C2/CCCCC2CN(C)C)cc1 (stereo not drawn)
Return: > 100 µM

Enquiry: Kindly indicate its recorded TGI. Item: C=C1CC/C=C(\C)CC[C@H](C(=C)C)[C@@H](O)/C=C(/CO)CCC1O (stereo partly drawn)
Return: > 100 µM

Enquiry: Kindly indicate its recorded TGI. Item: CN(C)c1ccc(N=C2C=CC(=C(C#N)C#N)c3ccccc32)cc1
Return: 13.7 µM

Enquiry: Recall and state the measured TGI for COC(=O)c1ccc2[nH]c(O)c(C(=Nc3ccc(N(C)C(=O)CN4CCN(C)CC4)cc3)c3ccccc3)c2c1 .
Return: 5.31 µM

Enquiry: Please indicate TGI recorded for CC[C@]1(Cc2ccc(OC)c(OC)c2)C=[N+]([O-])O[C@H](OC2CCCC2(c2ccccc2)c2ccccc2)[C@@H]1OC(=O)C(C)(C)C (stereo partly drawn)
Return: > 36.6 µM

Enquiry: # return recorded TGI for input Clc1ccc(C2=NCON=C2c2ccc(Cl)cc2)cc1
Return: > 100 µM

Enquiry: Tell me measured TGI for Cc1nc(-n2nc(-c3ccccc3)cc2-c2ccccc2)sc1C(=O)/C=C/c1ccccc1 please.
Return: > 100 µM

Enquiry: Look up TGI of O=c1[nH]c2ccc([N+](=O)[O-])cc2nc1/C(=N/Nc1ccccc1)C(O)c1ccco1 (stereo not drawn) and report it.
Return: > 100 µM

----------
System: UACC-62 melanoma
Assay: NCI tumour cell line growth inhibition, 48 h; in the data active = GI50 below about 0.43 µM; inactive = the rest
Your reply should match one of these outcome classes. 1.0 for active, 0.0 for inactive

C=C1CC/C=C(\C)CC[C@H](C(=C)C)[C@@H](O)/C=C(/CO)CCC1O (some centres undefined) | 0.0

Enquiry: Please let me know the test result on file for CC1=C2[C@@H](CC1)[C@]1(C)O[C@@](C3CC3)(C[C@H]1OC(=O)CO)[C@H]2OC(=O)/C=C/c1ccccc1 .
Return: 0.0

Enquiry: Field: outcome | Entry: COc1ccc(/C=C\c2cc(OC)c(OC)c(OC)c2)c(NS(=O)(=O)c2ccc(C(C)(C)C)cc2)c1O
Return: 1.0

Enquiry: Assay result, entry CCN1CCN(c2nc(NNC(=O)c3ccccc3)nc(N3CCN(C(c4ccccc4)c4ccccc4)CC3)n2)CC1 — outcome?
Return: 0.0

Numbers sourced from PubChem BioAssay (NCI).
